These entries and their values trace back to paper PMC4942255.

- Measurement target: xMutSα WT (xMsh2-xMsh6-FLAG) (Xenopus laevis, UniProt A0A1B4WRB1;A0A1B4WRB2 1-932;1-1340)
- Sequence (chain, as listed by the source, chain 1 of 2): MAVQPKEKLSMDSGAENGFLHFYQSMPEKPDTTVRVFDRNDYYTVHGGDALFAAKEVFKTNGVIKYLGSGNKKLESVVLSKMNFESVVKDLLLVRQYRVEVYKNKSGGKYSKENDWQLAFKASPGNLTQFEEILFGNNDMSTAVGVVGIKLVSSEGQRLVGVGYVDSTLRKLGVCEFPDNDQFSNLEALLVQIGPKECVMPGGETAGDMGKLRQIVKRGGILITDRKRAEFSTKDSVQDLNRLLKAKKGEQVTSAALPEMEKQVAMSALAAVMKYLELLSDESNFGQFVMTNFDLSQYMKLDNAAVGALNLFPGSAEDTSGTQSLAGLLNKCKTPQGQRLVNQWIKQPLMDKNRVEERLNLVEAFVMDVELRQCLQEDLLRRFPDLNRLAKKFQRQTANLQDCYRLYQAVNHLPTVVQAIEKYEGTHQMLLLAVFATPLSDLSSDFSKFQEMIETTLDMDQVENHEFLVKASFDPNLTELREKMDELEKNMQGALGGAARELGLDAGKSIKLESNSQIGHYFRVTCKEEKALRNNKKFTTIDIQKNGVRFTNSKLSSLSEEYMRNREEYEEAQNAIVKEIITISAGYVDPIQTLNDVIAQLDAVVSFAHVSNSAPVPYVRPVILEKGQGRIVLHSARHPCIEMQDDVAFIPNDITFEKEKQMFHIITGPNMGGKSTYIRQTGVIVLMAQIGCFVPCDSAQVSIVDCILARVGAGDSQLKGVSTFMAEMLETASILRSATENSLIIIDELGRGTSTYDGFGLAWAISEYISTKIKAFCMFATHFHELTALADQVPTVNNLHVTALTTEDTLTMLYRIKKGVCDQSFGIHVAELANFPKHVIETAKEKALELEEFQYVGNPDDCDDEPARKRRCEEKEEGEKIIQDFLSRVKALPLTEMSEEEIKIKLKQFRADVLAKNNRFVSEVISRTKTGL
- Sequence (chain, as listed by the source, chain 2 of 2): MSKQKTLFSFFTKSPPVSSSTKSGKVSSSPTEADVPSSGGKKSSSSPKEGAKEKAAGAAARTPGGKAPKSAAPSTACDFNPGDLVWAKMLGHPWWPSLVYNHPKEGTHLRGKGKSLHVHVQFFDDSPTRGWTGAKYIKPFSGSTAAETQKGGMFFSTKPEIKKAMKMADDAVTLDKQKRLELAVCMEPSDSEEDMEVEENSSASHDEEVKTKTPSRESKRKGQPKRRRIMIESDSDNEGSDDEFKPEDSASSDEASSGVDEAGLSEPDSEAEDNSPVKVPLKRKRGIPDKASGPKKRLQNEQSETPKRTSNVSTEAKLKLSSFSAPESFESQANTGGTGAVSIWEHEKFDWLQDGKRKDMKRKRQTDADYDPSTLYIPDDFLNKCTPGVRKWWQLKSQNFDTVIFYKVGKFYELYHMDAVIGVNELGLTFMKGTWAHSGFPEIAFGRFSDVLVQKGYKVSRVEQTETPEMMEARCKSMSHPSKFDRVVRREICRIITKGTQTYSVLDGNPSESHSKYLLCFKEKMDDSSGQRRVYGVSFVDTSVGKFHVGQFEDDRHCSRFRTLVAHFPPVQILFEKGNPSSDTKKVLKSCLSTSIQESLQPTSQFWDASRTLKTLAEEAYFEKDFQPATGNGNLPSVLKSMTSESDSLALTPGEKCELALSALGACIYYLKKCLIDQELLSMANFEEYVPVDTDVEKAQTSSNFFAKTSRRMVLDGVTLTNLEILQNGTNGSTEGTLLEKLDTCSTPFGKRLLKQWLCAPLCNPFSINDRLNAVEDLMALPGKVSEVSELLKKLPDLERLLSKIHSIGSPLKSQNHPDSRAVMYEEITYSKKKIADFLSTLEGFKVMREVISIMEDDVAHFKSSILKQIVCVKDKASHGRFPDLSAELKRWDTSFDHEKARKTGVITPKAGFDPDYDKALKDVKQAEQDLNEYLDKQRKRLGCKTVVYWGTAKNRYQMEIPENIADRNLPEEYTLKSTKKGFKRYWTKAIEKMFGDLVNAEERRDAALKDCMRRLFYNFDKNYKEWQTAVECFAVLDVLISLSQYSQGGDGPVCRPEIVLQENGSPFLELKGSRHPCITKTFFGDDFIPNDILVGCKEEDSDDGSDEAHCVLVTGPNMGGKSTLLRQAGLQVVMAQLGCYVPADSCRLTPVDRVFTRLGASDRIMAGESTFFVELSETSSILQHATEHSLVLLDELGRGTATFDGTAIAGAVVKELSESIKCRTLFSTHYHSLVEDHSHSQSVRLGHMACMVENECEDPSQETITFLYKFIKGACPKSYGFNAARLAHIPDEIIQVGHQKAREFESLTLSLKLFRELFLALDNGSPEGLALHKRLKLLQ
- Test method notes: SPR; no nucleotide or Mg2+ listed in running buffer; n = 2; SPR (BIACORE 3000): 20 mM Hepes-NaOH pH 7.5, 100 mM NaCl, 1 mM DTT, 0.005% Tween-20; 20 μl/min, 3 min association and 3 min dissociation; temperature not stated
- Condition: protein: recombinant; tags: C-terminal FLAG on xMsh6; copies: 1;1; label: 3' biotin on strand 1; blunt, A:C mismatch (A at strand 1 position 22, C in strand 2)
Readout label: pKd
// returns pKd (minus log10 of molar concentration), number only

stdin: Which value of pKd has been reported for 42 bp A:C mismatch oligo DNA (dsDNA) DNA 1: GGGTGACCGTACTGCATCTCGAGATCCATGTTACTGCGTCAG DNA 2: CTGACGCAGTAACATGGATCCCGAGATGCAGTACGGTCACCC in the records?
stdout: 8.66
